- Tested on: UCD52 (cells of a triple-negative basal-like breast cancer xenograft)
- assay.remarks: cell viability (% of vehicle); higher = less cytotoxic;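 further: PDX cells carrying CMV promoter-driven luciferase, viability read as total photon flux per second by IVIS imaging following D-luciferin, vehicle control 0.1% DMSO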
- measurement.parameters: 10 µM; 72 h
Counter-ions that a name gives are not always drawn.
Reported cell viability values follow for various molecules
readout.name: cell viability

{"molecule": "Cc1ccsc1C(=CCCN1CCC[C@@H](C(=O)O)C1)c1sccc1C [Tiagabine hydrochloride]", "experimental.value": 97.2}
{"molecule": "CCC1OC(=O)C(C)C(OC2CC(C)(OC)C(O)C(C)O2)C(C)C(OC2OC(C)CC(N(C)C)C2O)C(C)(O)CC(C)C(=NOCOCCOC)C(C)C(O)C1(C)O (stereo not drawn) [Roxithromycin]", "experimental.value": 103}
{"molecule": "CCCCc1nc(Cl)c(CO)n1Cc1ccc(-c2ccccc2-c2nnn[n-]2)cc1.[K+] [Losartan Potassium (DuP 753)]", "experimental.value": 97.9}

* * *

Reported cell viability values follow for various compounds
- Tested on: HCI11 (cells of an ER-positive luminal breast cancer xenograft)
- assay.remarks: cell viability (% of vehicle); higher = less cytotoxic
- measurement.parameters: 10 µM; 72 h
Structures can show the parent of a compound that is named as a salt.

{"compound": "CN[C@H](CC(C)C)C(=O)N[C@H]1C(=O)N[C@@H](CC(N)=O)C(=O)N[C@H]2C(=O)N[C@H]3C(=O)N[C@H](C(=O)N[C@H](C(=O)O)c4cc(O)cc(O)c4-c4cc3ccc4O)[C@H](O)c3ccc(c(Cl)c3)Oc3cc2cc(c3O[C@@H]2O[C@H](CO)[C@@H](O)[C@H](O)[C@H]2O[C@H]2C[C@](C)(N)[C@H](O)[C@H](C)O2)Oc2ccc(cc2Cl)[C@H]1O [Vancomycin hydrochloride]", "cell viability": 92.4}
{"compound": "CS(=O)(=O)c1ccc(C(=O)Nc2ccc(Cl)c(-c3ccccn3)c2)c(Cl)c1", "cell viability": 104}
{"compound": "CCC1(c2ccccc2)C(=O)NCNC1=O", "cell viability": 90.6}
{"compound": "CCC(CO)NCCNC(CC)CO.Cl.Cl (stereo not given) [Ethambutol HCl]", "cell viability": 103}
{"compound": "O=C(O)C1=CC(=NNc2ccc(S(=O)(=O)Nc3ccccn3)cc2)C=CC1=O", "cell viability": 137}
{"compound": "CC(=O)OC1(C(C)=O)CCC2C3CCC4=CC(=O)CCC4=C3C(c3ccc(N(C)C)cc3)CC21C (stereo not given) [Ulipristal acetate]", "cell viability": 78.9}
{"compound": "O=C(NCC1CN(c2ccc(N3CCOCC3=O)cc2)C(=O)O1)c1ccc(Cl)s1 (stereo not given)", "cell viability": 105}
{"compound": "CCN1CCCC1CNC(=O)c1cc(S(N)(=O)=O)ccc1OC (stereo not given) [Levosulpiride]", "cell viability": 98.2}
{"compound": "Cc1ccc(C)c(OCCCC(C)(C)C(=O)O)c1", "cell viability": 112}
{"compound": "O=C(Nc1ccccc1)c1ccccc1O [Salicylanilide]", "cell viability": 111}
{"compound": "Cc1cc2c(cc1S(N)(=O)=O)S(=O)(=O)CCC2", "cell viability": 89}
{"compound": "CCCCNc1cc(C(=O)O)cc(S(N)(=O)=O)c1Oc1ccccc1 [Bumetanide]", "cell viability": 92}
{"compound": "CC(Oc1cc(-c2cnn(C3CCNCC3)c2)cnc1N)c1c(Cl)ccc(F)c1Cl [(R)-Crizotinib]", "cell viability": 89.6}
{"compound": "CCS(=O)(=O)CCn1c([N+](=O)[O-])cnc1C", "cell viability": 88.6}
{"compound": "CCCC(CCC)C(=O)O.CCCC(CCC)C(=O)[O-].[Na+] [Divalproex Sodium]", "cell viability": 111}

* * *

- Test system: WHIM30 (cells of a triple-negative basal-like breast cancer xenograft)
- assay.remarks: cell viability (% of vehicle); higher = less cytotoxic
- measurement.parameters: 10 µM; 72 h
# label = 1 if cell viability < 100 else -1

{"compound": "CC(=Cc1ccccc1)C=C1SC(=S)N(CC(=O)O)C1=O", "class.name": -1}
{"compound": "Cn1c(=O)cc(N2CCCC(N)C2)n(Cc2cc(F)ccc2C#N)c1=O (stereo unspecified)", "class.name": -1}
{"compound": "COc1ccc(CC2c3cc(OC)c(OC)cc3CC[N+]2(C)CCC(=O)OCCCCCOC(=O)CC[N+]2(C)CCc3cc(OC)c(OC)cc3C2Cc2ccc(OC)c(OC)c2)cc1OC.O=S(=O)([O-])c1ccccc1.O=S(=O)([O-])c1ccccc1 (stereo unspecified) [Cisatracurium Besylate]", "class.name": -1}
{"compound": "CS(=O)(=O)O.N#CC1(c2ccc(NC(=O)c3cccnc3NCc3ccncc3)cc2)CCCC1", "class.name": -1}
{"compound": "CCCCCCOC(=O)N=C(N)c1ccc(NCc2nc3cc(C(=O)N(CCC(=O)OCC)c4ccccn4)ccc3n2C)cc1.CS(=O)(=O)O [Dabigatran etexilate mesylate]", "class.name": -1}
{"compound": "CC1C(NC(=O)C(=NOC(C)(C)C(=O)O)c2csc(N)n2)C(=O)N1S(=O)(=O)O (stereo unspecified)", "class.name": -1}
{"compound": "CN1CCC(=C2c3ccccc3CCn3c(C=O)cnc32)CC1", "class.name": -1}
{"compound": "CNC(=O)c1cc(Oc2ccc(NC(=O)Nc3ccc(Cl)c(C(F)(F)F)c3)cc2)ccn1.Cc1ccc(S(=O)(=O)O)cc1 [Sorafenib Tosylate]", "class.name": 1}
{"compound": "NC(=O)c1ncn(C2OC(CO)C(O)C2O)c1O (stereo unspecified)", "class.name": 1}
{"compound": "CC(C)(C)NC(=O)NC(C(=O)N1CC2C(C1C(=O)NC(CC1CCC1)C(=O)C(N)=O)C2(C)C)C(C)(C)C (stereo unspecified)", "class.name": 1}
{"compound": "Cl.O=C1OC(CN2CCOCC2)CN1N=Cc1ccc([N+](=O)[O-])o1 (stereo unspecified) [Furaltadone HCl]", "class.name": 1}

* * *

- Tested on: HCI13 (cells of an ER-positive luminal breast cancer xenograft)
- assay.remarks: cell viability (% of vehicle); higher = less cytotoxic
- measurement.parameters: 10 µM; 72 h
Counter-ions that a name gives are not always drawn.

{"molecule": "CCN(CC)CCNC(=O)c1ccc(N)cc1.Cl [Procainamide HCl]", "cell viability": 98}
{"molecule": "CCCCCCCCCCCCCCCCCCCCCCO", "cell viability": 97.3}
{"molecule": "CC(=O)OCC[N+](C)(C)C.[Cl-] [Acetylcholine Chloride]", "cell viability": 101}
{"molecule": "CC(C)NCC(O)COc1cccc2ccccc12.Cl (stereo not drawn) [Propranolol HCl]", "cell viability": 97.8}
{"molecule": "Cc1nccn1CC1CCc2c(c3ccccc3n2C)C1=O.Cl (stereo not drawn) [Ondansetron HCl]", "cell viability": 96.7}
{"molecule": "Cl.O=C(O)C=Cc1ccc(Cn2ccnc2)cc1 [Ozagrel HCl]", "cell viability": 126}
{"molecule": "CC(Cc1cc2c(c(C(N)=O)c1)N(CCCO)CC2)NCCOc1ccccc1OCC(F)(F)F (stereo not drawn)", "cell viability": 96.6}
{"molecule": "O=C(O)C=Cc1ccccc1", "cell viability": 107}
{"molecule": "CC1C=CC=CC=CC=CC=CC=CC=CC(OC2OC(C)C(O)C(N)C2O)CC2OC(O)(CC(O)CC(O)C(O)CCC(O)CC(O)CC(=O)OC(C)C(C)C1O)CC(O)C2C(=O)O (stereo not drawn)", "cell viability": 107}
{"molecule": "COc1cc2nc(N3CCN(C(=O)C4CCCO4)CC3)nc(N)c2cc1OC.Cl.O.O (stereo not drawn) [Terazosin HCl]", "cell viability": 104}
{"molecule": "CCOC(=O)c1ccc(N)cc1", "cell viability": 79.8}
{"molecule": "OC[C@@H](O)[C@@H](O)[C@H](O)[C@H](O)CO", "cell viability": 88.7}
{"molecule": "C=C[C@@H]1C[N@@]2CC[C@H]1C[C@@H]2[C@H](O)c1ccnc2ccc(OC)cc12", "cell viability": 122}
{"molecule": "CC1(C(=O)[O-])CCC2(C)CCC3(C)C(=CC(=O)C4C5(C)CCC(OC(=O)CCC(=O)[O-])C(C)(C)C5CCC43C)C2C1.[Na+].[Na+] (stereo not drawn) [Carbenoxolone disodium]", "cell viability": 129}
{"molecule": "COc1nc2ccc(Br)cc2cc1[C@@H](c1ccccc1)[C@@](O)(CCN(C)C)c1cccc2ccccc12 [Bedaquiline fumarate]", "cell viability": 116}
{"molecule": "Cl.c1ccc2c(CC3=NCCN3)cccc2c1 [Naphazoline HCl]", "cell viability": 88.7}
{"molecule": "CCOC(=O)C1=C(C)NC(C)=C(C(=O)OC)C1c1cccc([N+](=O)[O-])c1 (stereo not drawn)", "cell viability": 104}
{"molecule": "C=C1C(=CC=C2CCCC3(C)C2CCC3C(C)CCCC(C)C)CC(O)CC1O (stereo not drawn)", "cell viability": 52.6}
{"molecule": "CC(NC(=O)C(O)C(C)C)C(=O)NC1C(=O)N(C)CCc2ccccc21 (stereo not drawn)", "cell viability": 102}
{"molecule": "O=C(CCCN1CC=C(n2c(=O)[nH]c3ccccc32)CC1)c1ccc(F)cc1", "cell viability": 113}
{"molecule": "COc1cc(Cc2cnc(N)nc2N)cc(OC)c1OC", "cell viability": 117}
{"molecule": "S=c1nc[nH]c2nc[nH]c12", "cell viability": 92.3}
{"molecule": "CCOC(=O)C1=CC(OC(CC)CC)C(NC(C)=O)C(N)C1.O=P(O)(O)O (stereo not drawn) [Oseltamivir phosphate]", "cell viability": 93.1}
